// provenance: ChEMBL document CHEMBL3885861

organism: Rattus norvegicus; assay: Open TG-GATES - Regimen: Single; type: toxicity, organism-based, Sprague-Dawley; parameters: regimen Single, gender Male, age 6 weeks; conditions: in vivo, po, 0 mg/kg, 6 h, tissue Kidney, route gavage, dose level Control
Metric name: KIDNEY_R

Solved entries (count: 3):
Compound	Metric name	Result
CCC(C)(C)C(=O)O[C@H]1C[C@@H](C)C=C2C=C[C@H](C)[C@H](CC[C@@H]3C[C@@H](O)CC(=O)O3)[C@H]21 [SIMVASTATIN]	KIDNEY_R	0.9 g
CC(=O)Oc1cc(C(C)C)c(OCCN(C)C)cc1C [MOXISYLYTE]	KIDNEY_R	1 g
CC(C)(S)[C@@H](N)C(=O)O [PENICILLAMINE]	KIDNEY_R	0.9 g

The following compounds each have a reported value; give each one's KIDNEY_R.
1. CCSCC[C@H](N)C(=O)O [ETHIONINE]
2. Nc1nc(N)c2nc(-c3ccccc3)c(N)nc2n1

-- reply
0.9 g
1 g

====

species: Rattus norvegicus; test: Open TG-GATES - Regimen: Daily Repeat; type: toxicity, organism-based, Sprague-Dawley; set-up: regimen Daily Repeat, gender Male, age 6 weeks; settings: in vivo, po, 1000 mg/kg, 72 h, tissue Plasma, route gavage, dose level High, time 3 day
Exercise: state measured K for each of the compounds provided.
Answers are plain numbers, in meq/L.

Hi team, please reply with K for each item in this list.
1. O=C(N[C@H](CO)[C@H](O)c1ccc([N+](=O)[O-])cc1)C(Cl)Cl
2. CC(C)(S)[C@@H](N)C(=O)O
3. O=C(O)c1cccnc1

-- reply
4.3
4.1
4.1

-- ask Given the entry CCN1CCCC1CNC(=O)c1cc(S(N)(=O)=O)ccc1OC (centres undefined) [SULPIRIDE] , report its measured K.
-- reply 4.5

====

organism: Rattus norvegicus; test: Open TG-GATES - Regimen: Single; format: toxicity, organism-based, Sprague-Dawley; parameters: regimen Single, gender Male, age 6 weeks; conditions: in vivo, po, 0 mg/kg, 3 h, tissue Blood, route gavage, dose level Control
Metric name: WBC (x10_2/uL)
Give bare numbers, in x10_2/uL.

Compound	U	WBC
C[C@](N)(Cc1ccc(O)c(O)c1)C(=O)O	x10_2/uL	80.9
CCc1oc2ccccc2c1C(=O)c1cc(I)c(O)c(I)c1	x10_2/uL	100.3

Could you tell me WBC for each of these compounds? They are listed below.
1. CC(C)C(=O)Nc1ccc([N+](=O)[O-])c(C(F)(F)F)c1 [FLUTAMIDE]
2. Oc1ncnc2[nH]ncc12
3. CCN1CCCC1CNC(=O)c1cc(S(N)(=O)=O)ccc1OC (stereo unspecified) [SULPIRIDE]
4. C#C[C@]1(O)CC[C@H]2[C@@H]3CCc4cc(O)ccc4[C@H]3CC[C@@]21C

-- reply
99.3
95.8
81.5
82.1

====

species on record: Rattus norvegicus; experiment: Open TG-GATES - Regimen: Daily Repeat; assay type: toxicity, organism-based, Sprague-Dawley; parameters: regimen Daily Repeat, gender Male, age 6 weeks; conditions: in vivo, po, 300 mg/kg, […], tissue Plasma, route gavage, dose level Middle, time 7 day
I'd appreciate it if you could supply Na values for the items below.
Answers are plain numbers, in meq/L.

Please give Na for each item listed below.
1. CC(C)(S)[C@@H](N)C(=O)O [PENICILLAMINE]
2. CCN1CCCC1CNC(=O)c1cc(S(N)(=O)=O)ccc1OC (centres undefined) [SULPIRIDE]

-- reply
1. 141.6
2. 141.6

I would be grateful if you could provide Na for each of the following entries.
1. O=C(N[C@H](CO)[C@H](O)c1ccc([N+](=O)[O-])cc1)C(Cl)Cl [CHLORAMPHENICOL]
2. O=C(O)c1cccnc1 [NIACIN]

-- reply
[144.8, 139.8]
